TGT: cytoplasmic domain of the human CSF-1R (Homo sapiens, UniProt P07333)
Construct: Recombinant protein corresponding to the cytoplasmic domain of the human CSF-1R; purchased Invitrogen Corporation, Carlsbad, Calif; U.S.A. PV3249
Sequence (P07333 539-972 limits assumed): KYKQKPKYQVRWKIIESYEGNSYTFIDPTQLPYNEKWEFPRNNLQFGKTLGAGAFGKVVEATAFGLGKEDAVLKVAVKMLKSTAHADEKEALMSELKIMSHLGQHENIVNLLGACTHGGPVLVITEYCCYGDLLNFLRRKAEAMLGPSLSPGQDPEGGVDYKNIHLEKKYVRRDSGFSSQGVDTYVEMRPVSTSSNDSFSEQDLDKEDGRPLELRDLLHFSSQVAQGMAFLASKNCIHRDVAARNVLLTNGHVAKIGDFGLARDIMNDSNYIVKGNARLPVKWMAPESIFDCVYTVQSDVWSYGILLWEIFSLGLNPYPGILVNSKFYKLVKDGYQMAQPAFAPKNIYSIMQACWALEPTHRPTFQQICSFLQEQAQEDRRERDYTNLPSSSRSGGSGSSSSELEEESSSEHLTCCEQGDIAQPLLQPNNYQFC
PROCEDURE_TEXT: In vitro kinase assay for CSF-1R (AlphaScreen)
Format: biochemical
CONDITION_INFO: tested at about 1 μM
I'd appreciate it if you could supply inhibition at 1 µM values for the items below.
Give bare numbers, in %.

1) CNC(=O)c1cc(Oc2ccc3nc(N[C@H](C)C4CCCCC4)ncc3c2)ccn1 [Example 15]    100
2) CNC(=O)c1cc(Oc2ccc3nc(NC4CCCCC4)ncc3c2)ccn1 [Example 74]    100
3) CNC(=O)c1cc(Oc2ccc3nc(Nc4ccccc4OCCO)ncc3c2)ccn1 [Example 70]    95
4) CNC(=O)c1cc(Oc2ccc3nc(NCCN4CCOCC4)ncc3c2)ccn1 [Example 35]    71
5) CNC(=O)c1cc(Oc2ccc3nc(NC4CCCC4)ncc3c2)ccn1 [Example 66]    96
6) CNC(=O)c1cc(Oc2ccc3nc(NCC4CC4)ncc3c2)ccn1 [Example 53]    83
7) OC(c1ccncc1)c1ccc2nc(NCC3CCCCC3)sc2c1 (stereo not shown) [Example 76]    65
8) CNC(=O)c1cc(Oc2ccc3nc(Nc4ccccc4N4CCN(C)CC4)ncc3c2)ccn1 [Example 54]    65
9) CNC(=O)c1cc(Oc2ccc3nc(OCC4CCCCC4)ncc3c2)ccn1 [Example 55]    99
10) CCOC(=O)N1CCC(Nc2ncc3cc(Oc4ccnc(C(=O)NC)c4)ccc3n2)CC1 [Example 56]    84

List reported inhibition at 1 µM for each of these compounds:
1. CNC(=O)c1cc(Oc2ccc3nc(Nc4ccccc4OCCCO)ncc3c2)ccn1 [Example 71]
2. CNC(=O)c1cc(Oc2ccc3nc(NCc4cccc5c4OCCO5)ncc3c2)ccn1 [Example 42]

Reply:
1. 90
2. 100

// for each compound in input: emit inhibition at 1 µM
1. CNC(=O)c1cc(Oc2ccc3nc(Nc4ccccc4OCCOC)ncc3c2)ccn1 [Example 69]
2. CNC(=O)c1cc(Nc2ccc3nc(N[C@@H]4CCCC[C@H]4O)sc3c2)ccn1 [Example 79]

Reply:
1: 99; 2: 97

###

TGT: PDGFRb (Homo sapiens)
Construct: The kinase domain of PDGFRβ was assayed in 50 mM Hepes; purchased Invitrogen P3082
Sequence (P09619 600-962 limits assumed): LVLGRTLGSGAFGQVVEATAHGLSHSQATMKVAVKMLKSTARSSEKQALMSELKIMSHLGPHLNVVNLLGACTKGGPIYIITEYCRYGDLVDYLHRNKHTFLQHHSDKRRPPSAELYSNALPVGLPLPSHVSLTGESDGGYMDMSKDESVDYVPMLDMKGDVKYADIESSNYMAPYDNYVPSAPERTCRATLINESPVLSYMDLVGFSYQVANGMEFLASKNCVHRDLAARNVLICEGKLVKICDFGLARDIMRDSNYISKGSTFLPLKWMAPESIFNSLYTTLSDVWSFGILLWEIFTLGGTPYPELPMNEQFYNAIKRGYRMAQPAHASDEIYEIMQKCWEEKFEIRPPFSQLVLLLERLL
PROCEDURE_TEXT: Inhibition of PDGFRb kinase in an in vitro biochemical assay (alphascreen)
CONDITION_INFO: tested at about 1 μM; read-out: PDGFR % inhibition at 1 μM
QUANTITY: inhibition at 1 µM

Record excerpt, results attached:
1. NC(=O)c1cc(Oc2ccc3nc(Nc4ccccc4N4CCOCC4)ncc3c2)ccn1    < 1%
2. CNC(=O)c1cc(Oc2ccc3nc(NCCN4CCOCC4)ncc3c2)ccn1    < 1%
3. CNC(=O)c1cc(Oc2ccc3nc(NCC(C)(C)N4CCOCC4)ncc3c2)ccn1    < 1%
4. CNC(=O)c1cc(Nc2ccc3nc(N[C@@H]4CCCC[C@H]4O)sc3c2)ccn1    < 1%
5. CNC(=O)c1cc(Oc2ccc3nc(N[C@H](C)C4CCCCC4)ncc3c2)ccn1    26%
6. CNC(=O)c1cc(Oc2ccc3nc(Nc4ccccc4CN4CCOCC4)ncc3c2)ccn1    < 1%
7. OC(c1ccncc1)c1ccc2nc(NCC3CCCCC3)sc2c1 (stereo not shown)    27%
8. CNC(=O)c1cc(Oc2ccc3nc(N[C@H](CO)Cc4ccccc4)ncc3c2)ccn1    24%
9. CNC(=O)c1cc(Oc2ccc3nc(NC4CCCC4)ncc3c2)ccn1    < 1%

# input for lookup
Ask: What inhibition at 1 µM value was documented for this compound, CC(=O)Nc1cc(Oc2ccc3nc(Nc4ccccc4N4CCOCC4)ncc3c2)ccn1 ?
Reply: < 1%

###

TGT: cytoplasmic domain of the human CSF-1R (Homo sapiens, UniProt P07333)
Construct: Recombinant protein corresponding to the cytoplasmic domain of the human CSF-1R; purchased Invitrogen Corporation, Carlsbad, Calif; U.S.A. PV3249
PROCEDURE_TEXT: In vitro kinase assay for CSF-1R (AlphaScreen)
Assay type: biochemical
CONDITION_INFO: tested at about 1 μM
QUANTITY: inhibition at 1 µM (%)
Give bare numbers, in %.

1) CNC(=O)c1cc(Oc2ccc3nc(N[C@@H](CO)C4CCCCC4)ncc3c2)ccn1    100

Consider the following items and state reported inhibition at 1 µM for each.
1. CNC(=O)c1cc(Oc2ccc3nc(N[C@H](CO)Cc4ccccc4)ncc3c2)ccn1
2. CNC(=O)c1cc(Oc2ccc3nc(NCC(C)(C)N4CCOCC4)ncc3c2)ccn1
3. CNC(=O)c1cc(Oc2ccc3nc(NCc4ccccc4N4CCOCC4)ncc3c2)ccn1
4. CNC(=O)c1cc(Oc2ccc3nc(N[C@H](C)c4ccccc4)ncc3c2)ccn1
5. CNC(=O)c1cc(Oc2ccc3nc(N[C@H]4c5ccccc5C[C@H]4O)ncc3c2)ccn1
6. CNC(=O)c1cc(Oc2ccc3nc(N[C@H]4CCCC[C@@H]4O)ccc3c2)ccn1
7. CCOc1ccccc1Nc1ncc2cc(Oc3ccnc(C(=O)NC)c3)ccc2n1

Reply:
1: 88; 2: 93; 3: 100; 4: 99; 5: 100; 6: 100; 7: 99
